assay: fission yeast growth modulation, primary screen, strain 972, OD600, 24 h, no modulator (AID 1090);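 note: basal condition with compound alone and no growth modifier present; test concentration not given here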; details: S. pombe 972 growth, called active from +8 up or from −8 down
Active and inactive are the calls of the source.
# output must be one of yes = active, no = inactive

What outcome does the record of this test show for C=C(CCCC)C(=O)CC[C@H](OC(C)=O)c1cccc(OCCO)c1 ?
no

One more compound: CCCCC(O)C1C=CC2C(=O)N(c3ccccc3)C(=O)C2N1Nc1ccccc1F (centres undefined)
no

How about this compound: CC(C)c1ccc(NN2C(C(O)C(c3ccccc3)c3ccccc3)C=CC3C(=O)N(c4ccccc4)C(=O)C32)cc1 (centres undefined)
no

Follow-up item: CCOC(=O)C[C@H]1[C@H](OC(=O)c2cc3ccccc3oc2=O)[C@@H](NC(=O)C2CCCCC2)c2cc(OCCCO)ccc2N1C(=O)c1ccccc1
no

Please do the same for Cc1ccc(C(C)CC(O)C2C=CC3C(=O)N(C)C(=O)C3N2NC(=O)OC(C)(C)C)o1 (centres undefined) as well.
no

Consider next the compound COC(=O)[C@@]1(Cc2ccc(F)cc2)[C@H]2c3cc(C(=O)N(C)C)n(Cc4nc5ccccc5[nH]4)c3C[C@H]2CN1C(=O)c1ccccc1 in the same way.
no

Another: C[C@@]1([C@@H](NC(=O)c2ccccc2)c2ccc(-c3ccccc3)cc2)C[C@H]1C1CCCCC1
no

Again, but for CC(C)C[C@H]1NC(=O)[C@@]23C(=O)N[C@@H](Cc4ccccc4)C2[C@H](C)[C@@]2(C)O[C@H]2C3/C=C/C/C=C\CNC(=O)[C@H](Cc2ccccc2)NC1=O (some centres undefined)
no

Then this compound: OC([C@@H]1CC(c2ccccc2)=NO1)[C@H]1CC(c2ccccc2)=NO1 (some centres undefined)
no

Further, for O=C1OCCC/C=C\[C@H]2OC34C=CCN(Cc5ccccc5)C(=O)[C@H]3N(CCCCCCO)C(=O)[C@@H]4C12 (some centres undefined) ?
no

Can you handle COCCOC(=O)N1C(=O)[C@@]2(c3cc(C#Cc4ccc(OC)cc4)ccc31)[C@H](c1ccccc1OCCO)N1[C@H](c3ccccc3)[C@H](c3ccccc3)OC(=O)[C@H]1[C@@H]2C(=O)N1CCN(c2ncccn2)CC1 next?
no

And CCCCCN1CC=CC23O[C@@H]4/C=C\CCCOC(=O)C4[C@H]2C(=O)N(CCCO)[C@@H]3C1=O (some centres undefined) ?
no

// query: C=CCOC(=O)[C@H]1[C@@H]2C(=O)O[C@@H](c3ccccc3)[C@@H](c3ccccc3)N2[C@@H](c2ccc(OCCOC(=O)[C@H]3C[C@H]4C(=O)N5CCC[C@H]5C(=O)N4[C@H]3c3ccc(O)cc3)cc2)[C@]12C(=O)Nc1ccc(I)cc12
no

Then this compound: CCOC(=O)C[C@H]1[C@H](OC(=O)c2ccc(C(=O)c3ccccc3)cc2)[C@@H](NC(=O)c2ccc(-c3ccccc3)cc2)c2cc(OCCCO)ccc2N1C(=O)c1ccccc1
no

Please answer likewise for O=C1[C@H]2C=C(Br)[C@H](C[C@@H]2c2ccccc2)[C@@]12CO2
yes

Proceed to CN(C)CCCNC(=O)[C@@]1(c2ccc([N+](=O)[O-])cc2)CC(=O)N(C2CCCCC2)[C@@H]1c1ccc(CO)cc1I
yes

For CC1CC/C=C\[C@H]2OC34C=CCN(C(C)(C)C)C(=O)[C@H]3N(CCCCCCO)C(=O)[C@@H]4C2C(=O)O1 (some centres undefined) then?
no

How about this compound: O=C(NCC(F)(F)F)[C@@H]1c2ccccc2C(=O)N(C2CCCCC2)[C@H]1c1ccc(CO)cc1
no

Do the same for CN(C)C(=O)[C@@]1(Cc2ccccc2)N=C(c2ccc(OCCCO)cc2)O[C@H]1c1ccccc1N=[N+]=[N-] please
no

Same again, this time with CN(C)CCCCCCNC(=O)[C@@H]1C[C@@H]2C(=O)N[C@@H](CCCCN)C(=O)N2[C@@H]1c1cccc(OCCO)c1
no

Please answer likewise for COc1ccc([Si](C)(C)[C@H]2[C@H](CCO)O[C@@]3(C(=O)N(Cc4ccc(N5C(=O)COc6ccccc65)cc4)c4ccccc43)[C@@H]2C)cc1
no

Subsequent entry: COc1ccc(C(=O)O[C@H]2CC[C@]3(C)C4=C(CCC3C2(C)C)[C@]2(C)CC[C@H]([C@H](C)CCCC(C)C)[C@@]2(C)CC4)cc1 (some centres undefined)
no

Follow-up entry: Cc1ccc(S[C@]2(C(=O)NCCN3CCOCC3)CC(=O)N(Cc3ccccc3Cl)[C@@H]2c2ccc(CO)cc2)cc1
no

Can you handle COc1ccc([C@H]2OC[C@@H]3CC4(CC=CC4)C(=O)N32)cc1 next?
no

Now give it for [N-]=[N+]=Nc1ccccc1C[C@]1(C(=O)NCC(O)CO)N=C(c2ccc(OCCCO)cc2)O[C@H]1c1ccccc1N=[N+]=[N-] (some centres undefined) too.
no

Can you handle COCC(=C=CC[C@@H](O)c1ccccc1OCCO)C[C@@H](O)c1cc(Cl)cc(Cl)c1O next?
no

Repeat with O=C(NCc1ccccc1)[C@@]1(Cc2ccccc2)N=C(c2ccc(OCCCO)cc2)O[C@H]1c1ccccc1
no

Do the same for CC(=O)N1Cc2ccccc2C[C@@]2(COC(c3ccc(OCCCO)cc3)=N2)C1=O please
no

Thanks! And O=C1c2ccccc2[C@](Cc2ccccc2I)(C(=O)NC2CC2)[C@H](c2ccc(CO)cc2)N1Cc1ccccc1 ?
no

====

assay: E. coli DRC41 culture turbidity changes, primary screen, E. coli filamentation inducer project, strain DRC41, OD650, 48 h (AID 1152);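 note: E. coli MC1000 strain DRC41 lacking acrAB efflux pump and sulA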; conditions: E. coli DRC41 (acrAB sulA), higher = more signal, called active from +8 up or from −8 down
Active and inactive are the calls of the source.
I'd appreciate it if you could supply z-score values for the items below.

Would you mind telling me what z-score value was observed for C#CCN(Cc1ccccc1Br)C(/C=C/c1ccccc1)CO (stereo unspecified) ?
-0.585 (inactive)

Field entry: O=C1NC(=O)C2C1C=CC(C(O)c1ccccc1)N2Nc1ccc(Cl)cc1Cl (stereo unspecified)
-1.87 (inactive)

Same thing, different compound: C=C(COC)/C(=C/C[C@H](OC(=O)c1ccncc1)c1ccc(OCCO)cc1)c1cnc2ccccc2c1
-0.469 (inactive)

Try the compound CCCN1C(=O)[C@]2(CCS(=O)(=O)c3ccccc3)N=C(c3ccc(OCCCO)cc3)O[C@@H]2c2ccccc21
1.51 (inactive)

Same question, C=CCNC(=O)[C@@H]1[C@H]2C(=O)O[C@H](c3ccccc3)[C@H](c3ccccc3)N2[C@H](c2ccc(OCCO)cc2)[C@@]12C(=O)Nc1ccc(C#Cc3ccc(OC)cc3)cc12 this time
0.411 (inactive)

And what about the compound CCCC[C@@H]1C[C@H]1[C@@H](NC(=O)c1ccco1)c1ccc(Cl)cc1 ?
-1.54 (inactive)

Entry C[C@]1(C(=O)NC2CC2)c2ccccc2C(=O)N(Cc2cc(C(F)(F)F)cc(C(F)(F)F)c2)[C@H]1c1ccc(CO)cc1 please
1.4 (inactive)

Ok, now COc1ccc([C@H]2OC[C@@H]3CC4(CC=CC4)C(=O)N32)cc1
-0.56 (inactive)

Could you do the same for C#CCN(CC=C(C)C)[C@H](CO)c1ccccc1 , please?
0.0373 (inactive)

Do the same for COc1ccc([Si](C)(C)[C@H]2[C@H](CC(=O)N3Cc4ccccc4C[C@H]3CO)O[C@@]3(C(=O)N(Cc4ccc(N5CCC5=O)cc4)c4ccccc43)[C@@H]2C)cc1 please
0.97 (inactive)

Thanks! And CC(C)c1ccc(NN2C(C(O)c3cc(C(F)(F)F)cc(C(F)(F)F)c3)C=CC3C(=O)N(c4ccccc4)C(=O)C32)cc1 (stereo unspecified) ?
-2.06 (inactive)

What about this compound? COC(=O)c1c(CC[C@@H](CO)NC(=O)N[C@@H](C)Cn2cc(C3(O)CCCCC3)nn2)oc(C(C)=O)c1C(=O)OC
-0.244 (inactive)

Try the compound CCCCN1CC=CC23O[C@@H]4C=CCOC(=O)[C@@H]4[C@H]2C(=O)N(CCCCCO)[C@@H]3C1=O (stereo partly specified)
0.504 (inactive)

Also CCC(CC)C(O)C1C=CC2C(=O)N(C)C(=O)C2N1Nc1ccccc1 (stereo unspecified) ?
-0.39 (inactive)

Also Cc1ccc(S[C@]2(C(=O)NC3CC3)CC(=O)N(C3Cc4ccccc4C3)[C@@H]2c2ccc(CO)cc2)cc1 , if possible.
2.26 (inactive)

Repeat with C=CCN1C(=O)[C@]2(O[C@H](CCO)[C@@H]([Si](C)(C)c3ccc(OC)cc3)[C@@H]2C)c2cc(N3CCCCC3=O)ccc21
0.143 (inactive)

====

system: Chordin-like protein 2 (CHRDL2); test: CHRDL2 small-molecule binders, primary screen, biochemical, small-molecule microarray, 635 nm fluorescence (AID 1126); settings: small-molecule microarray binding, fluorescence 635 nm; higher = more signal;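 note: printed compound slides probed with Chrdl2 protein at 4 µg/mL for 1 h at 4 C; score merges 667 nm emission intensity with signal to noise over three replicate slides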
So I've got a bunch of compounds here, and I need their composite z-score values.
Enter the number alone.

// composite z-score lookup, key: C=CCOC(=O)[C@@H]1[C@H]2C(=O)O[C@H](c3ccccc3)[C@H](c3ccccc3)N2[C@H](c2ccc(OCCOC(=O)[C@@H]3C[C@@H]4C(=O)N[C@@H](CCCCN(C)C)C(=O)N4[C@@H]3c3ccc(O)cc3)cc2)[C@@]12C(=O)Nc1ccc(I)cc12
1.15

Record: O=C(NCc1ccccc1)[C@@]1(CCS(=O)(=O)c2ccccc2)N=C(c2ccc(OCCCO)cc2)O[C@H]1c1ccccc1
-0.481

Entry C=CCNC(=O)[C@H]1[C@@H]2C(=O)O[C@@H](c3ccccc3)[C@@H](c3ccccc3)N2[C@@H](c2ccc(OCCO)cc2)[C@]12C(=O)Nc1ccc(C#CC3=CCCCC3)cc12 please
0.105

Field entry: C=CC[C@@]1(C(=O)N(C)C)N=C(c2ccc(OCCCO)cc2)O[C@@H]1c1ccccc1N=[N+]=[N-]
-0.344

// query: OC([C@@H]1CC(c2ccccc2)=NO1)[C@H]1CC(c2ccccc2)=NO1 (some centres not stated)
0.191

Entry COc1ccc(CCN2C(=O)[C@@]3(Cc4ccccc42)c2ccccc2C(=O)N(Cc2ccccc2C(F)(F)F)[C@H]3c2ccc(CO)cc2)cc1 please
0.736

Proceed to C#CCN(CC1=CCCCC1)[C@H](c1ccccc1Br)[C@@H](O)Cc1ccccc1
-0.882

// provenance: PubChem BioAssay
